Tested on: 883617-216-R-J1-PDC tumor spheroids, viability;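 further: spheroids exposed to agents for 7 days before the viability read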
Assay: Anticancer human tumor 883617-216-R-J1-PDC patient-derived bladder carcinoma cell line growth inhibition [PI3K]; active means viability on the fitted dose curve at most 10% of control; inactive means the rest
Conditions: second compound 0.316 µM; first compound 0.0316 µM; spheroids with HUVEC and MSC
Source text: Combinatorial screen of targeted agents with the PI3K inhibitors inavolisib, alpelisib, duvelisib, and copanlisib in multi-cell type tumor spheroids A high-throughput screen of multi-cell type tumor spheroids was designed to identify active combinations of targeted small molecules and PI3K pathway inhibitors. […] Compounds. […] If the clinical Cmax for an agent had not been determined, the highest concentration tested was 10 microM. […]
Possible outcomes: active, inactive

compound	label.class
CC1(C)CCC(Nc2ncc(C(F)(F)F)c(-c3c[nH]c4c(P(C)(C)=O)c(C#N)ccc34)n2)CN1 (stereo unspecified) + COc1c(OCCCN2CCOCC2)ccc2c3n(c(=NC(=O)c4cnc(N)nc4)nc12)CCN3	active
CC(C)n1nc(-c2ccc3oc(N)nc3c2)c2c(N)ncnc21 + COc1c(OCCCN2CCOCC2)ccc2c3n(c(=NC(=O)c4cnc(N)nc4)nc12)CCN3	active
CC(Cn1ccc(-c2ccc(C#N)c(Cl)c2)n1)NC(=O)c1cc(C(C)O)[nH]n1 (stereo unspecified) + COc1c(OCCCN2CCOCC2)ccc2c3n(c(=NC(=O)c4cnc(N)nc4)nc12)CCN3	active
Cn1nccc1Nc1nccc(-c2ccn(C(CO)c3ccc(Cl)c(F)c3)c(=O)c2)n1 (stereo unspecified) + CC(Nc1ncnc2nc[nH]c12)c1cc2cccc(Cl)c2c(=O)n1-c1ccccc1	inactive
CC1(C)CCC(Nc2ncc(C(F)(F)F)c(-c3c[nH]c4c(P(C)(C)=O)c(C#N)ccc34)n2)CN1 (stereo unspecified) + CC(Nc1ncnc2nc[nH]c12)c1cc2cccc(Cl)c2c(=O)n1-c1ccccc1	inactive
CCCS(=O)(=O)Nc1ccc(F)c(C(=O)c2c[nH]c3ncc(-c4ccc(Cl)cc4)cc23)c1F + COc1c(OCCCN2CCOCC2)ccc2c3n(c(=NC(=O)c4cnc(N)nc4)nc12)CCN3	active
CC(=O)c1c(C)c2cnc(Nc3ccc(N4CCNCC4)cn3)nc2n(C2CCCC2)c1=O + CC(Nc1ccc2c(c1)OCCn1cc(N3C(=O)OCC3C(F)F)nc1-2)C(N)=O	inactive
CCCS(=O)(=O)Nc1ccc(F)c(C(=O)c2c[nH]c3ncc(-c4ccc(Cl)cc4)cc23)c1F + CC(Nc1ccc2c(c1)OCCn1cc(N3C(=O)OCC3C(F)F)nc1-2)C(N)=O	inactive
C=CC(=O)N1CCN(c2nc(=O)n(-c3c(C)ccnc3C(C)C)c3nc(-c4c(O)cccc4F)c(F)cc23)C(C)C1 (stereo unspecified) + CC(Nc1ncnc2nc[nH]c12)c1cc2cccc(Cl)c2c(=O)n1-c1ccccc1	inactive
CC1(C)CCC(CN2CCN(c3ccc(C(=O)NS(=O)(=O)c4ccc(NCC5CCOCC5)c([N+](=O)[O-])c4)c(Oc4cnc5[nH]ccc5c4)c3)CC2)=C(c2ccc(Cl)cc2)C1 + CC(Nc1ncnc2nc[nH]c12)c1cc2cccc(Cl)c2c(=O)n1-c1ccccc1	inactive
Cn1ncc(Cl)c1-c1cc(C(=O)NC(CN)Cc2cccc(F)c2)sc1Cl (stereo unspecified) + CC(Nc1ccc2c(c1)OCCn1cc(N3C(=O)OCC3C(F)F)nc1-2)C(N)=O	inactive
C[C@@H](NC(=O)c1ncnc(N)c1Cl)c1ncc(C(=O)Nc2cc(C(F)(F)F)c(Cl)cn2)s1 + CC(Nc1ccc2c(c1)OCCn1cc(N3C(=O)OCC3C(F)F)nc1-2)C(N)=O	inactive
CCCS(=O)(=O)Nc1ccc(F)c(C(=O)c2c[nH]c3ncc(-c4ccc(Cl)cc4)cc23)c1F + CC(Nc1ncnc2nc[nH]c12)c1cc2cccc(Cl)c2c(=O)n1-c1ccccc1	inactive
Cn1ncnc1[C@H]1c2n[nH]c(=O)c3cc(F)cc(c23)N[C@@H]1c1ccc(F)cc1 + CC(Nc1ncnc2nc[nH]c12)c1cc2cccc(Cl)c2c(=O)n1-c1ccccc1	inactive
C=CC(=O)N1CCN(c2nc(=O)n(-c3c(C)ccnc3C(C)C)c3nc(-c4c(O)cccc4F)c(F)cc23)C(C)C1 (stereo unspecified) + CC(Nc1ccc2c(c1)OCCn1cc(N3C(=O)OCC3C(F)F)nc1-2)C(N)=O	inactive
CCN1CCN(Cc2ccc(Nc3ncc(F)c(-c4cc(F)c5nc(C)n(C(C)C)c5c4)n3)nc2)CC1 + CC(Nc1ncnc2nc[nH]c12)c1cc2cccc(Cl)c2c(=O)n1-c1ccccc1	inactive
CC1(C)CCC(Nc2ncc(C(F)(F)F)c(-c3c[nH]c4c(P(C)(C)=O)c(C#N)ccc34)n2)CN1 (stereo unspecified) + CC(Nc1ccc2c(c1)OCCn1cc(N3C(=O)OCC3C(F)F)nc1-2)C(N)=O	inactive
CCN1CCN(Cc2ccc(Nc3ncc(F)c(-c4cc(F)c5nc(C)n(C(C)C)c5c4)n3)nc2)CC1 + CC(Nc1ccc2c(c1)OCCn1cc(N3C(=O)OCC3C(F)F)nc1-2)C(N)=O	inactive
C#Cc1c(F)ccc2cc(O)cc(-c3ncc4c(N5CC6CCC(C5)N6)nc(OCC56CCCN5CC(F)C6)nc4c3F)c12 (stereo unspecified) + Cc1nc(NC(=O)N2CCCC2C(N)=O)sc1-c1ccnc(C(C)(C)C(F)(F)F)c1	inactive
CNC(=O)c1ccc(N2C(=S)N(c3ccc(C#N)c(C(F)(F)F)c3)C(=O)C2(C)C)cc1F + CC(Nc1ncnc2nc[nH]c12)c1cc2cccc(Cl)c2c(=O)n1-c1ccccc1	inactive
CC1(C)CCC(CN2CCN(c3ccc(C(=O)NS(=O)(=O)c4ccc(NCC5CCOCC5)c([N+](=O)[O-])c4)c(Oc4cnc5[nH]ccc5c4)c3)CC2)=C(c2ccc(Cl)cc2)C1 + Cc1nc(NC(=O)N2CCCC2C(N)=O)sc1-c1ccnc(C(C)(C)C(F)(F)F)c1	inactive
